test system: 598228-144-R-J1-PDC complex spheroids, viability; experiment: Anticancer human tumor 598228-144-R-J1-PDC patient-derived serous endometrial adenocarcinoma cell line growth inhibition [CLK]; conditions: second compound 1 µM; first compound 1 µM; active = viability on the fitted dose curve at most 10% of control; inactive = the rest
In this exercise, the only acceptable responses are TRUE for active, FALSE for inactive

Lookup: Please state the recorded outcome for this compound: Nc1ccn(C2OC(CO)C(O)C2(F)F)c(=O)n1 (stereo not given) + CN1CCN(c2cc(C(=O)Nc3cc4cc(-c5cnn(C)c5)ccc4cn3)ccn2)CC1
Found: TRUE

Now take the following compound into account.
Lookup: Outcome? COc1c(OCCCN2CCOCC2)ccc2c3n(c(=NC(=O)c4cnc(N)nc4)nc12)CCN3 + CN1CCN(c2cc(C(=O)Nc3cc4cc(-c5cnn(C)c5)ccc4cn3)ccn2)CC1
Found: TRUE

* * *

System: 598228-144-R-J1-PDC complex spheroids, viability
Test: Anticancer human tumor 598228-144-R-J1-PDC cell line growth inhibition [CLK];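 also: spheroids exposed to compounds for seven days before readout; 100% = DMSO vehicle control wells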
Conditions: second compound 0.1 µM; first compound 1 µM; active compounds read low
From the text: A high-throughput screen of multi-cell type tumor spheroids was designed to identify active combinations of […] and targeted small molecules. Complex spheroids include a stromal component modeled by human endothelial cells (HUVEC) and fibroblasts modeled by human mesenchymal stem cells (MSCs). […] Compounds. […] If the clinical Cmax for an agent had not been determined, the highest concentration tested was 10 microM. […]
# Lookup of reported viability, T/C keyed by entry
Write the answer as a number in %, unit excluded.

Use the examples below as a reference point.
Lookup: Item CC(Nc1ccc2c(c1)OCCn1cc(N3C(=O)OCC3C(F)F)nc1-2)C(N)=O (stereo not given) + CN1CCN(c2cc(C(=O)Nc3cc4cc(-c5cnn(C)c5)ccc4cn3)ccn2)CC1 with 598228-144-R-J1-PDC complex spheroids, viability - viability, T/C?
Found: 38.6

Lookup: Form entry - test system: 598228-144-R-J1-PDC complex spheroids, viability; read-out: viability, T/C; compound: CC(CO)NC(=O)c1cc(-c2ccc(Cl)cc2)nn(-c2cnn(C)c2)c1=O (stereo not given) + CN1CCN(c2cc(C(=O)Nc3cc4cc(-c5cnn(C)c5)ccc4cn3)ccn2)CC1
Found: 125

Lookup: Can you look up viability, T/C on 598228-144-R-J1-PDC complex spheroids, viability for C=C(F)C(=O)N1CCN(c2nc(OCC3CCCN3C)nc3c2CCN(c2cccc4cccc(Cl)c24)C3)CC1CC#N (stereo not given) + CNC(=O)c1ccc(Nc2nc(OC3CCCC3)c3c(-c4ccc5nc(C)oc5c4)c[nH]c3n2)c(OC)c1 ?
Found: 97.7

Lookup: Return viability, T/C measured with 598228-144-R-J1-PDC complex spheroids, viability given this compound: CC1(C)CCC(CN2CCN(c3ccc(C(=O)NS(=O)(=O)c4ccc(NCC5CCOCC5)c([N+](=O)[O-])c4)c(Oc4cnc5[nH]ccc5c4)c3)CC2)=C(c2ccc(Cl)cc2)C1 + CN1CCN(c2cc(C(=O)Nc3cc4cc(-c5cnn(C)c5)ccc4cn3)ccn2)CC1
Found: 124

Now let's try a different one.
Lookup: viability, T/C / 598228-144-R-J1-PDC complex spheroids, viability / CC1(C)CCC(CN2CCN(c3ccc(C(=O)NS(=O)(=O)c4ccc(NCC5CCOCC5)c([N+](=O)[O-])c4)c(Oc4cnc5[nH]ccc5c4)c3)CC2)=C(c2ccc(Cl)cc2)C1 + CNC(=O)c1ccc(Nc2nc(OC3CCCC3)c3c(-c4ccc5nc(C)oc5c4)c[nH]c3n2)c(OC)c1
Found: 99.4
